Listed below: IC50 values for each entry.
Biological target: BRD4 BD1 (Homo sapiens)
Experiment: AlphaScreen binding assay, BRD4 Bromodomain 1
Protocol: The binding of Example compounds to BRD4 Bromodomain 1 and BRD4 Bromodomain 2 was assessed using 384-well AlphaScreen assay technology. His-epitope tagged BRD4 BD144-168 and BRD4 BD2333-460 were cloned, expressed, and purified to homogeneity. BRD4 BD1 and BRD4 BD2 binding and inhibition was assessed by monitoring the engagement of biotinylated Histone H4 (1-21) K5/8/12/16 tetra-acetylated peptide with the targets using the AlphaScreen technology (PerkinElmer). […]
metric-name: IC50

* C[C@H]1CN(C(=O)C2CC2)c2cc(-c3ccc(N4CCS(=O)(=O)CC4)cc3)ccc2N1C(=O)C1CC1 | 100 to 1000 nM
* CC(=O)N1c2ccc(-c3cnn(CCO)c3)cc2N(C(=O)OC(C)C)C[C@@H]1C | < 100 nM
* CC(=O)N1c2ccc(-c3ccc(S(=O)(=O)C4CC4)cc3)cc2N(C(=O)OC2CCCCC2)C[C@@H]1C | 100 to 1000 nM
* CC(=O)N1c2ccc(-c3cnn(C4CCCS(=O)(=O)C4)c3)cc2N(C(=O)OC2CCCC2)C[C@@H]1C (stereo partly drawn) | 100 to 1000 nM
* CC(=O)N1c2ccccc2N(CC2CCN(C(C)C)CC2)C[C@@H]1C | > 10000 nM
* CNC(=O)c1cccc(-c2ccc3c(c2)N(C(=O)c2ccco2)C[C@H](C)N3C(C)=O)c1 | 100 to 1000 nM
* COc1ccc(Cl)c(OC(=O)N2C[C@H](C)N(C(C)=O)c3ccc(-c4cnn(C5CC5)c4)cc32)c1 | 1000 to 10000 nM
* CC(=O)N1c2ccc(-c3cnn(C4CC4)c3)nc2N(C(=O)Nc2ccc(F)cc2)C[C@@H]1C | > 10000 nM
* CC(=O)N1c2ccc(-c3ccc(S(=O)(=O)C(C)C)cc3)cc2N(C(=O)C2CC2)C[C@@H]1C | 1000 to 10000 nM
* CC(=O)N1c2ccc(-c3ccc(S(=O)(=O)CCO)cc3)cc2N(C(=O)OC(C)C)C[C@@H]1C | 100 to 1000 nM
* COC(=O)N1c2ccc(-c3cnn(CCO)c3)cc2N(C(=O)Oc2ccc(F)cc2)C[C@@H]1C | 1000 to 10000 nM
* C[C@H]1CN(C(=O)c2ccco2)c2cc(-c3ccc(S(C)(=O)=O)cc3)ccc2N1S(C)(=O)=O | > 10000 nM
* CC(=O)N1c2ccc(-c3ccc(C#N)cc3)cc2N(C(=O)c2ccco2)C[C@@H]1C | 1000 to 10000 nM
* CC(=O)N1c2cc(NS(C)(=O)=O)c(-c3cnn(C4CC4)c3)cc2N(C(=O)OC(C)C)C[C@@H]1C | > 10000 nM
* CC(=O)N1c2ccccc2N(C(=O)c2ccc3ccccc3c2)C[C@@H]1C | > 10000 nM
